# System: BEN
# EXPERIMENT: relative viability (nuclei count vs DMSO), 5 days (fraction); higher = more cells survive
# CONDITION NOTES: first compound 0.4 µM
Exercise: state measured relative viability for each of the compounds provided.
Number only, no unit.

**Q:** Lab request: please report relative viability under test system BEN for Cc1sc2c(c1C)C(c1ccc(Cl)cc1)=N[C@@H](CC(=O)OC(C)(C)C)c1nnc(C)n1-2 [JQ1] + CC(=O)c1c(C)c2cnc(Nc3ccc(N4CCNCC4)cn3)nc2n(C2CCCC2)c1=O [Palbociclib] (partner 0.5 µM)
**A:** 0.476

**Q:** // lookup relative viability | system=BEN | key= Cc1sc2c(c1C)C(c1ccc(Cl)cc1)=N[C@@H](CC(=O)OC(C)(C)C)c1nnc(C)n1-2 [JQ1] + CC(C)C[C@H](NC(=O)[C@H](Cc1ccccc1)NC(=O)c1cnccn1)B(O)O [Bortezomib] (partner 0.002 µM)
**A:** 0.463

---

# Tested on: NCI-H522
# EXPERIMENT: relative viability (nuclei count vs DMSO), 5 days (fraction); higher = more cells survive
# CONDITION NOTES: first compound 0.4 µM
Provide the recorded relative viability for the entries that follow.
// response body must contain only the number

**Q:** I would be grateful if you could share the reported relative viability for Cc1sc2c(c1C)C(c1ccc(Cl)cc1)=N[C@@H](CC(=O)OC(C)(C)C)c1nnc(C)n1-2 [JQ1] + N=C(N)NC(=N)NCCc1ccccc1 [Phenformin] (partner 250 µM) .
**A:** 0.55

**Q:** So what does the record say about relative viability for Cc1sc2c(c1C)C(c1ccc(Cl)cc1)=N[C@@H](CC(=O)OC(C)(C)C)c1nnc(C)n1-2 [JQ1] + COc1cccc2cc(-c3nc([C@H]4CC[C@H](C(=O)O)CC4)n4ncnc(N)c34)[nH]c12 [OSI-027] (partner 0.5 µM) ?
**A:** 0.617

**Q:** Which relative viability reading was recorded for the molecule Cc1sc2c(c1C)C(c1ccc(Cl)cc1)=N[C@@H](CC(=O)OC(C)(C)C)c1nnc(C)n1-2 [JQ1] + CC(=O)c1c(C)c2cnc(Nc3ccc(N4CCNCC4)cn3)nc2n(C2CCCC2)c1=O [Palbociclib] (partner 0.5 µM) ?
**A:** 0.697

---

# System: CAL-12T
# EXPERIMENT: relative viability (nuclei count vs DMSO), 5 days (fraction); higher = more cells survive
# CONDITION NOTES: first compound 0.02 µM
MEASURED ENDPOINT: relative viability
The response must contain the number and no unit.

**Q:** Entry under review: CC(=O)O[C@@]12CO[C@@H]1C[C@H](O)[C@@]1(C)C(=O)[C@H](O)C3=C(C)[C@@H](OC(=O)[C@H](O)[C@@H](NC(=O)OC(C)(C)C)c4ccccc4)C[C@@](O)([C@@H](OC(=O)c4ccccc4)[C@H]21)C3(C)C [Docetaxel] + O=C(c1cc(Cc2n[nH]c(=O)c3ccccc23)ccc1F)N1CCN(C(=O)C2CC2)CC1 [Olaparib] (partner 8 µM) . Reported relative viability?
**A:** 0.173

---

Task for the reader: assign each of the following compounds its reported relative viability.
# Tested on: NCI-H1355
# EXPERIMENT: relative viability (nuclei count vs DMSO), 5 days (fraction); higher = more cells survive
# CONDITION NOTES: first compound 0.01581 µM
A bare number is all that is needed in reply.

**Q:** Consider the compound COc1cc2nccc(Oc3ccc(NC(=O)Nc4cc(C)on4)c(Cl)c3)c2cc1OC [Tivozanib] + C[C@@H](Oc1cc(-c2cnn(C3CCNCC3)c2)cnc1N)c1c(Cl)ccc(F)c1Cl [Crizotinib] (partner 1 µM) and give its measured relative viability.
**A:** 1.03

**Q:** Query: relative viability; subject: Nc1ccn([C@@H]2O[C@H](CO)[C@@H](O)[C@@H]2O)c(=O)n1 [Cytarabine] + CC(=O)Nc1cccc(-n2c(=O)n(C3CC3)c(=O)c3c(Nc4ccc(I)cc4F)n(C)c(=O)c(C)c32)c1 [Trametinib] (partner 0.02 µM)
**A:** 0.38

**Q:** # input compound: COc1cc2nccc(Oc3ccc(NC(=O)Nc4cc(C)on4)c(Cl)c3)c2cc1OC [Tivozanib] + O=C(c1cc(Cc2n[nH]c(=O)c3ccccc23)ccc1F)N1CCN(C(=O)C2CC2)CC1 [Olaparib] (partner 8 µM) ; wanted: its relative viability
**A:** 0.755

**Q:** For COc1cc2nccc(Oc3ccc(NC(=O)Nc4cc(C)on4)c(Cl)c3)c2cc1OC [Tivozanib] + Cc1nc(Nc2ncc(C(=O)Nc3c(C)cccc3Cl)s2)cc(N2CCN(CCO)CC2)n1 [Dasatinib] (partner 0.075 µM) , what is its reported relative viability?
**A:** 0.689

---

# System: HCC-15
# EXPERIMENT: relative viability (nuclei count vs DMSO), 5 days (fraction); higher = more cells survive
# CONDITION NOTES: first compound 0.253 µM
I'd appreciate it if you could supply relative viability values for the items below.
# respond with the number and nothing more

**Q:** Given the entry Cc1cnc(-c2cnc(NCCNc3ccc(C#N)cn3)nc2-c2ccc(Cl)cc2Cl)[nH]1 + CC(=O)Nc1cccc(-n2c(=O)n(C3CC3)c(=O)c3c(Nc4ccc(I)cc4F)n(C)c(=O)c(C)c32)c1 [Trametinib] (partner 0.02 µM) , what relative viability was observed with HCC-15?
**A:** 0.391

**Q:** Param readout= relative viability; system= HCC-15; entry= Cc1cnc(-c2cnc(NCCNc3ccc(C#N)cn3)nc2-c2ccc(Cl)cc2Cl)[nH]1 + C[C@]1(O)C[C@@H](c2nc(-c3ccc4ccc(-c5ccccc5)nc4c3)c3c(N)nccn32)C1 [Linsitinib] (partner 1 µM) ; returns value.
**A:** 0.811

**Q:** Give recorded relative viability with HCC-15 for the following compound: Cc1cnc(-c2cnc(NCCNc3ccc(C#N)cn3)nc2-c2ccc(Cl)cc2Cl)[nH]1 + O=C(CCCCCCC(=O)Nc1ccccc1)NO [Vorinostat] (partner 1 µM)
**A:** 0.818

**Q:** Given the entry Cc1cnc(-c2cnc(NCCNc3ccc(C#N)cn3)nc2-c2ccc(Cl)cc2Cl)[nH]1 + Cc1nc(Nc2ncc(C(=O)Nc3c(C)cccc3Cl)s2)cc(N2CCN(CCO)CC2)n1 [Dasatinib] (partner 0.075 µM) , what relative viability was observed with HCC-15?
**A:** 0.509

**Q:** Write down the reported relative viability of Cc1cnc(-c2cnc(NCCNc3ccc(C#N)cn3)nc2-c2ccc(Cl)cc2Cl)[nH]1 + Nc1ncn([C@H]2C[C@H](O)[C@@H](CO)O2)c(=O)n1 [Decitabine] (partner 2 µM) , test system: HCC-15.
**A:** 0.588

**Q:** Provide the documented relative viability with HCC-15 as the system for Cc1cnc(-c2cnc(NCCNc3ccc(C#N)cn3)nc2-c2ccc(Cl)cc2Cl)[nH]1 + N=C(N)NC(=N)NCCc1ccccc1 [Phenformin] (partner 250 µM)
**A:** 0.415

**Q:** What value of relative viability on HCC-15 does O=c1[nH]c2ccccc2n1C1CCN(CCCC(c2ccc(F)cc2)c2ccc(F)cc2)CC1 [Pimozide] + COc1cccc2cc(-c3nc([C@H]4CC[C@H](C(=O)O)CC4)n4ncnc(N)c34)[nH]c12 [OSI-027] (partner 0.5 µM) have?
**A:** 0.668

---

# Tested on: NCI-H1734
# EXPERIMENT: relative viability (nuclei count vs DMSO), 5 days (fraction); higher = more cells survive
# CONDITION NOTES: first compound 0.8 µM
For each record, write down the corresponding relative viability.
Answer field: number only, no words.

**Q:** Dear colleague, I am looking for the recorded relative viability of the following compound: Cc1cnc(-c2cnc(NCCNc3ccc(C#N)cn3)nc2-c2ccc(Cl)cc2Cl)[nH]1 + C[C@@H](Oc1cc(-c2cnn(C3CCNCC3)c2)cnc1N)c1c(Cl)ccc(F)c1Cl [Crizotinib] (partner 1 µM)
**A:** 0.647

**Q:** Endpoint output: relative viability of Cc1cnc(-c2cnc(NCCNc3ccc(C#N)cn3)nc2-c2ccc(Cl)cc2Cl)[nH]1 + CS(=O)(=O)CCNCc1ccc(-c2ccc3ncnc(Nc4ccc(OCc5cccc(F)c5)c(Cl)c4)c3c2)o1 [Lapatinib] (partner 2 µM) . Value?
**A:** 0.882

**Q:** # get_value(readout='relative viability', item= Cc1cnc(-c2cnc(NCCNc3ccc(C#N)cn3)nc2-c2ccc(Cl)cc2Cl)[nH]1 + N=C(N)NC(=N)NCCc1ccccc1 [Phenformin] (partner 250 µM) )
**A:** 0.391

**Q:** What does the record list as relative viability for O=c1[nH]c2ccccc2n1C1CCN(CCCC(c2ccc(F)cc2)c2ccc(F)cc2)CC1 [Pimozide] + CC(C)C[C@H](NC(=O)[C@H](Cc1ccccc1)NC(=O)c1cnccn1)B(O)O [Bortezomib] (partner 0.002 µM) ?
**A:** 0.916

**Q:** Tell me the measured relative viability of Cc1cnc(-c2cnc(NCCNc3ccc(C#N)cn3)nc2-c2ccc(Cl)cc2Cl)[nH]1 + Cc1cc(Nc2cc(N3CCN(C)CC3)nc(Sc3ccc(NC(=O)C4CC4)cc3)n2)n[nH]1 [Tozasertib] (partner 0.1 µM) , please.
**A:** 0.261
